molecular target: ΔF508-CFTR (Homo sapiens, UniProt P13569, DEL508-508); construct: host or cells: CFBE41o-, doxycycline-inducible; assay: CFTR cell surface levels using HRP-tagged ΔF508-CFTR expressing CFBE cells, intrinsic corrector capacity; format: cell-based; details: HRP-tagged ΔF508-CFTR CFBE41o- cells, compounds alone (intrinsic corrector capacity), 20 hours at 33° C.; read-out: EC50
Sequence (P13569 with tags, fused parts or gaps DEL508-508): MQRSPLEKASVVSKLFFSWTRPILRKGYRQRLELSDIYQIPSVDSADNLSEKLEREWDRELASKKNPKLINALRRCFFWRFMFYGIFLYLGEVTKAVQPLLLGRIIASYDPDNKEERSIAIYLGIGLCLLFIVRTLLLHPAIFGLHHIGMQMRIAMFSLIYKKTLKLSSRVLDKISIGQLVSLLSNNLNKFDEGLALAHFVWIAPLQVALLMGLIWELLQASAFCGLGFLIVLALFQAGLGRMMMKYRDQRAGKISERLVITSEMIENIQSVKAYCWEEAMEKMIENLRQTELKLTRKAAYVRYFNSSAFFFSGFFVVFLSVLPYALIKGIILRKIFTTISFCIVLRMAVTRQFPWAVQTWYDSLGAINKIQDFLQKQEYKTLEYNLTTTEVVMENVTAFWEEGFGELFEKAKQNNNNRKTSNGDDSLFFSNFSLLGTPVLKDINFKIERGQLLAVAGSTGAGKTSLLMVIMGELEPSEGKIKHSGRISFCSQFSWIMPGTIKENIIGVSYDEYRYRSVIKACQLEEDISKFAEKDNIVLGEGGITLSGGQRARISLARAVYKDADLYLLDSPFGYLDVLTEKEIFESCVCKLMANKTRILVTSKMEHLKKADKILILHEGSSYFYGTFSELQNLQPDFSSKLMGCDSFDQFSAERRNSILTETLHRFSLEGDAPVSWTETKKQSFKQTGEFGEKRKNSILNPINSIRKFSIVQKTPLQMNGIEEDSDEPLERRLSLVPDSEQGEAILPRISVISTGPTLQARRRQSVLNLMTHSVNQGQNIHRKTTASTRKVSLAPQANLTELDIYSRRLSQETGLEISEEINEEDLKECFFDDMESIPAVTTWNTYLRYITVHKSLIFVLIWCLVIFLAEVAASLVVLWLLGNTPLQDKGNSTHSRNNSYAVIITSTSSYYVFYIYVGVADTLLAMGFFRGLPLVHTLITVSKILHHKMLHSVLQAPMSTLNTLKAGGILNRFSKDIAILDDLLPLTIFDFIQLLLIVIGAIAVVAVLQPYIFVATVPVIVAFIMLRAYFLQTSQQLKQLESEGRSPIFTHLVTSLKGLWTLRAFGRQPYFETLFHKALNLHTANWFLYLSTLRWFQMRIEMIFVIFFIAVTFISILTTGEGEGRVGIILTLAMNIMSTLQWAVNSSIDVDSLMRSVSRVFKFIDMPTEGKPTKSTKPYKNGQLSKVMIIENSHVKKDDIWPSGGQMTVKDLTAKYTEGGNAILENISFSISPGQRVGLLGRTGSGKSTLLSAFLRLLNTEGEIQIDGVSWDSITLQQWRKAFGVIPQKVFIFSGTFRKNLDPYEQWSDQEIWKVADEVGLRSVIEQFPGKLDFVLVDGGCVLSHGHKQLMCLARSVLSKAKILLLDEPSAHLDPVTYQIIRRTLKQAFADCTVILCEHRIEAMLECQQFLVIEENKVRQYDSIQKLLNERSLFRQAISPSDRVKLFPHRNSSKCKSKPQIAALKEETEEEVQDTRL
pEC50: −log10 of the molar value.
Overview of reported pEC50 across a group of compounds:
parameter: pEC50

compoundStructure	parameter	measuredValue
CC(C)c1nn(-c2cccc(N3CCOCC3)c2)c2nc(C(=O)O)cc(-c3cnc(N(C)C4CCOCC4)nc3)c12	pEC50	6.14
CC(C)c1nn(-c2ccc(F)cc2F)c2nc(C(=O)O)cc(-c3cnc(N4CCC(C#N)CC4)nc3)c12	pEC50	5.92
CC(C)c1nn(-c2ccc(F)cc2F)c2nc(C(=O)O)cc(-c3ccc(N4CCC(C#N)CC4)nc3)c12	pEC50	6.01
Cc1nn(-c2ccccc2)c2nc(C(=O)O)cc(-c3ccc(N(C)C4CCOCC4)nc3)c12	pEC50	5.89
COCC1CCN(c2cc(C(=O)O)nc3c2c(C(C)C)nn3-c2cccc(N(C)C)c2)CC1	pEC50	6.28
CC(C)c1nn(C2CCCCC2)c2nc(C(=O)O)cc(-c3ccc(N(C)C)nc3)c12	pEC50	6.17
CC(=O)NC1CCN(c2cc(C(=O)O)nc3c2c(C)nn3-c2ccccc2)CC1	pEC50	5.12

---

target: ΔF508-CFTR (Homo sapiens, UniProt P13569, DEL508-508); construct: host or cells: CFBE41o-, doxycycline-inducible; experiment: CFTR cell surface levels using HRP-tagged ΔF508-CFTR expressing CFBE cells, in the presence of a co-corrector; assay type: cell-based; settings: HRP-tagged ΔF508-CFTR expressing CFBE cells, in the presence of 3 μM co-corrector; read-out: EC50
pEC50: −log10 of the molar value.
Overview of reported pEC50 across a group of compounds:
parameter: pEC50

compoundStructure	measuredValue
Cc1nn(-c2ccccc2)c2nc(C(=O)O)cc(-c3ccc(N4CC(C)(C)C4)cc3)c12	5.49
CC(C)c1nn(-c2ccc(F)cc2)c2nc(C(=O)O)cc(N3CC4(CCCOC4)C3)c12	6.01
CN(C)CCC1CCN(c2cc(C(=O)O)nc3c2c(C2CCC2)nn3-c2ccccc2)CC1	6.14
COCCN(C)C1CCN(c2cc(C(=O)O)nc3c2c(C2CCC2)nn3-c2ccc(F)cc2)CC1	5.48
O=C(O)c1cc(N2CC3(CCOC3)C2)c2c(C3CCC3)nn(-c3ccccc3)c2n1	6.05
COCC1CCN(c2cc(C(=O)O)nc3c2c(C(C)C)nn3CC(C)C)CC1	5.48
Cc1nn(-c2ccccc2)c2nc(C(=O)O)cc(N3CC(N4CCOCC4)C3)c12	5.12
CCCOCCN1CCN(c2cc(C(=O)O)nc3c2c(C2CCC2)nn3-c2ccccc2)CC1	6.77

---

target: ΔF508-CFTR (Homo sapiens, UniProt P13569, DEL508-508); construct: host or cells: CFBE41o-, doxycycline-inducible; assay: CFTR cell surface levels using HRP-tagged ΔF508-CFTR expressing CFBE cells, in the presence of a co-corrector; type: cell-based; conditions: HRP-tagged ΔF508-CFTR expressing CFBE cells, in the presence of 3 μM co-corrector

molecule	% Activation [%]
CCOCCN1CCC(N2CCN(c3cc(C(=O)O)nc4c3c(C3CCC3)nn4-c3ccccc3)CC2)CC1 [compound 726]	409.6
COCC1(C)CN(c2cc(C(=O)O)nc3c2c(C)nn3-c2ccccc2)C1 [compound 289]	172.8
CC(C)c1nn(-c2ccc(F)cc2)c2nc(C(=O)O)cc(N3CCCN(C4CCC4)CC3)c12 [compound 767]	210.1
O=C(O)c1cc(N2CC(F)(F)C2)c2c(C3CCC3)nn(-c3ccccc3)c2n1 [compound 528]	209.2
CCOCC(=O)N1CCN(c2cc(C(=O)O)nc3c2c(C(C)C)nn3-c2ccc(F)cc2)CC1 [compound 775]	262.4
N#CC1CCN(c2ccc(-c3cc(C(=O)O)nc4c3c([C@H]3C[C@@H](F)C3)nn4-c3ccccc3)cn2)CC1 [compound 432]	388.23
Cc1nn(-c2cccc(F)c2)c2nc(C(=O)O)cc(-c3ccc(N4CCOCC4)nc3)c12 [compound 101]	331.65
CC(C)c1nn(-c2ccc(F)cc2)c2nc(C(=O)O)cc(N3CCC(CN4CCCC4)CC3)c12 [compound 811]	408.4
CN1C(=O)CN(CC2CCN(c3cc(C(=O)O)nc4c3c(C3CCC3)nn4-c3ccccc3)CC2)CC12COC2 [compound 845]	499.6
Cc1cccc(-n2nc(C(C)C)c3c(N4CCC5C(CCN5C(=O)OC(C)(C)C)C4)cc(C(=O)O)nc32)c1 (stereo not shown) [compound 234]	510.27
O=C(O)c1cc(N2CCC(F)(CO)CC2)c2c(C3CCC3)nn(-c3ccccc3)c2n1 [compound 517]	303.2
COC1CCN(C2CCN(c3cc(C(=O)O)nc4c3c(C3CCC3)nn4-c3ccc(F)cc3)CC2)C1 (stereo not shown) [compound 848]	405.2
Cc1nn(-c2ccccc2)c2nc(C(=O)O)cc(N3CC4CNCCN4C3=O)c12 (stereo not shown) [compound 290]	127.35
COCC1CCN(c2cc(C(=O)O)nc3c2c(C2CCC2)nn3-c2ccnc(C3CCOCC3)c2)CC1 [compound 817]	384.9
O=C(O)c1cc(N2CCC(N3CCC(C(F)(F)F)C3)CC2)c2c(C3CCC3)nn(-c3ccc(F)cc3)c2n1 (stereo not shown) [compound 869]	513.05
O=C(O)c1cc(N2CCC(CCN3CCOCC3)CC2)c2c(C3CCC3)nn(-c3ccc(F)cc3)c2n1 [compound 810]	468.7
CCOCC1(F)CCN(c2cc(C(=O)O)nc3c2c(C2CCC2)nn3-c2ccccc2)CC1 [compound 461]	328.05
CC(C)c1nn(-c2ccc(F)cc2)c2nc(C(=O)O)cc(OCC3CCCO3)c12 (stereo not shown) [compound 609]	336.4
COCCOCCOc1cc(C(=O)O)nc2c1c(C1CCC1)nn2-c1ccccc1 [compound 586]	322.2
O=C(O)c1cc(N2CCC(N3CCN(C4COC4)CC3)CC2)c2c(C3CCC3)nn(-c3ccc(F)cc3)c2n1 [compound 899]	351.9
O=C(O)c1cc(N2CC(N3CCOCC3)C2)c2c(C3CCC3)nn(-c3ccccc3)c2n1 [compound 709]	223.9
O=C(O)c1cc(N2CCN3CCC[C@@H]3C2)c2c(C3CCC3)nn(-c3ccccc3)c2n1 [compound 721]	302.1
CN1CCCC(CN(C)c2cc(C(=O)O)nc3c2c(C2CCC2)nn3-c2ccccc2)C1 (stereo not shown) [compound 593]	313.3
O=C(O)c1cc(N2CCC(N3CCOCC3)CC2)c2c(C3CCC3)nn(-c3ccnc(C4CCOCC4)c3)c2n1 [compound 819]	313.1
CC1(C)OC[C@@H](COc2cc(C(=O)O)nc3c2c(C2CCC2)nn3-c2ccccc2)O1 [compound 618]	315.25
O=C(O)c1cc(N2CCC(N3CCOCC3)CC2)c2c(C3CCC3)nn(-c3ccnc(OCC4CCOCC4)c3)c2n1 [compound 919]	416.35
CC(C)c1nn(-c2cccc(N(C)C)c2)c2nc(C(=O)O)cc(N3CCCCC3)c12 [compound 328]	422.25
Cc1nn(-c2ccccc2)c2nc(C(=O)O)cc(N3CCCCC3=O)c12 [compound 150]	115.3
CN(C1CCOCC1)C1CCN(c2cc(C(=O)O)nc3c2c(C2CCC2)nn3-c2ccc(F)cc2)CC1 [compound 854]	380.7
CC(C)c1nn(-c2ccc(F)cc2)c2nc(C(=O)O)cc(-c3cnc(N(C)C4CCOCC4)nc3)c12 [compound 280]	440.83
Cc1nn(-c2ccccc2)c2nc(C(=O)O)cc(-c3ccc(N(C)C4COC4)cc3)c12 [compound 140]	362.05
